STUDY_TARGET: Dihydroorotate dehydrogenase (quinone), mitochondrial (Plasmodium falciparum (isolate 3D7))
ASSAY_METHOD_TEXT: PfDHODH enzyme inhibitors, primary screen, biochemical, C-terminal His tag, absorbance 600 nm (AID 1175);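 further: recombinant parasite enzyme with a five histidine tag at its C terminus; test concentration not given here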
STATED_CONDITIONS: DCIP absorbance 600 nm, higher = more signal, called active from +8 up or from −8 down
Reported composite z-score by item:
Give your answer as a number; write no unit.

Example results:
# COMPOUND, VALUE_REPORTED
measured = [
    ("COC(=O)[C@@]1(Cc2ccc(F)cc2)[C@H]2c3cc(C(=O)N(C)C)n(Cc4c(CO)[nH]cc(C)c4=O)c3C[C@H]2CN1C(=O)c1ccccc1", -0.244),
    ("C=C[C@@H](OC)[C@H](OC(=O)Nc1ccc(SC)cc1)c1ccc(OCCO)cc1", -0.915),
]

Exercise: State the recorded composite z-score for this entry: Cc1cccc([C@H]2C[C@H]3C(I)=C[C@@H]2C(=O)[C@]32CO2)c1
Key: 0.284

Exercise: State the recorded composite z-score for this entry: CC1(C)C(=O)C(c2ccccc2)=C2CN3C(=O)N(CCc4ccccc4)C(=O)C3(Cc3ccc(F)cc3)C=C21 (centres undefined)
Key: -0.533

* * *

Reported composite z-score by item:
System: Lefty1
ASSAY_METHOD_TEXT: Lefty1 binders on small-molecule microarrays, primary screen, biochemical, small-molecule microarray, 635/667 nm fluorescence (AID 1139)
STATED_CONDITIONS: small-molecule microarray binding, fluorescence 635/667; higher = more signal
Give your answer as a number; write no unit.

Exercise: State the recorded composite z-score for this entry: [N-]=[N+]=Nc1ccccc1C[C@@]1(C(=O)O)N=C(c2ccc(OCCCO)cc2)O[C@@H]1c1ccccc1N=[N+]=[N-]
Key: -0.817

Exercise: State the recorded composite z-score for this entry: CC(C)C(CO)N1C(=O)[C@@H]2[C@H]3C(=O)OCC=C[C@H]3OC23C=CCN(C(C)(C)C)C(=O)[C@@H]13 (some centres undefined)
Key: 0.503

Exercise: State the recorded composite z-score for this entry: C=C[C@@H](C)[C@@H](OC(=O)Nc1ccc(SC)cc1)c1ccc(OCCO)cc1
Key: 0.191

Exercise: State the recorded composite z-score for this entry: CC=CC(O)C1C=CC2C(=O)NC(=O)C2N1Nc1ccccn1 (centres undefined)
Key: 0.585

Exercise: State the recorded composite z-score for this entry: O=C1N[C@@H](Cc2ccccc2)C(=O)N2[C@@H]1C[C@@H](C(=O)O)[C@H]2c1ccc(O)cc1
Key: 1.58

Exercise: State the recorded composite z-score for this entry: C=CCNC(=O)[C@@H]1[C@H]2C(=O)O[C@H](c3ccccc3)[C@H](c3ccccc3)N2[C@H](c2ccc(OCCO)cc2)[C@@]12C(=O)N(C(=O)OCCOC)c1ccc(C#CCCO)cc12
Key: 1.1

Exercise: State the recorded composite z-score for this entry: COc1ccc(C#Cc2ccc3c(c2)[C@]2(C(=O)N3)[C@H](c3ccc(OCCO)cc3)N3[C@H](c4ccccc4)[C@H](c4ccccc4)OC(=O)[C@H]3[C@@H]2C(=O)N2CCc3cc(OC)c(OC)cc3C2)cc1
Key: 1.17

Exercise: State the recorded composite z-score for this entry: COc1ccc(C#Cc2ccc3c(c2)[C@]2(C(=O)N3)[C@H](C(=O)N3CCCCCCC3)[C@H]3C(=O)O[C@H](c4ccccc4)[C@H](c4ccccc4)N3[C@@H]2c2ccc(O)cc2)cc1
Key: 0.942

Exercise: State the recorded composite z-score for this entry: C=CCN1C(=O)[C@]2(O[C@H](CCO)[C@@H]([Si](C)(C)c3ccc(OC)cc3)[C@@H]2C)c2cc(N3C(=O)COc4ccccc43)ccc21
Key: 0.465

* * *

Tested on: Human papillomavirus type 1a protein E7 (residues 44-93)
ASSAY_METHOD_TEXT: HPV1a E7 fragment binders on microarrays, primary screen, biochemical, small-molecule microarray, residues 44-93, 635 nm fluorescence (AID 1108);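 further: E7 fragment applied at 1 µg/mL in TBST for 1 h at 4 C; score combines spot fluorescence with its signal to noise ratio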
STATED_CONDITIONS: small-molecule microarray binding, fluorescence 635 nm; higher = more signal
OBSERVATION_TYPE: composite z-score

Example results:
# MOLECULE, composite z-score
measured = [
    ("C=CCNC(=O)[C@H]1[C@@H]2C(=O)O[C@@H](c3ccccc3)[C@@H](c3ccccc3)N2[C@@H](c2ccc(OCCO)cc2)[C@]12C(=O)Nc1ccc(C#CCNC(N)=O)cc12", 0.0863),
    ("O=C1c2ccccc2[C@](Cc2ccccc2I)(C(=O)NC2CC2)[C@H](c2ccc(CO)cc2)N1Cc1ccccc1C(F)(F)F", 1.45),
]

Please look at the following molecule next.
Exercise: State the recorded composite z-score for this entry: CCN(CC)c1ccc(N2CC=CC34O[C@@H]5/C=C\CCC(C)OC(=O)C5[C@H]3C(=O)N(C(C)CO)[C@@H]4C2=O)cc1 (stereo partly drawn)
Key: -0.344

* * *

System: Fibrinogen (Alexa647-labelled)
ASSAY_METHOD_TEXT: fibrinogen binders on compound microarrays, profiling panel, artefact control for SMM control-protein annotation, biochemical, small-molecule microarray, 635/667 nm fluorescence (AID 1131);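 further: z-score merges 667 nm fluorescence with per-spot signal-to-noise over triplicate slides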
STATED_CONDITIONS: fibrinogen-A647 binding fluorescence, higher = more signal
Hi, to clarify the labels: Y covers composite z-score from 0.9 upward, N covers anything below 0.9.

Please review the entries below; each comes with its answer.
# MOLECULE, GROUP_LABEL
records = [
    ("CN(C)C(=O)[C@@]1(Cc2ccccc2N=[N+]=[N-])N=C(c2ccc(OCCCO)cc2)O[C@H]1c1ccccc1", "Y"),
    ("COCCOC(=O)N1C(=O)[C@@]2(c3cc(C#CCCO)ccc31)[C@H](c1ccccc1OCCO)N1[C@H](c3ccccc3)[C@H](c3ccccc3)OC(=O)[C@H]1[C@@H]2C(=O)N1CCCCCCC1", "N"),
    ("CCCCC(=O)N(CCN1CCOCC1)[C@@H]1CC(C(=O)NCCO)=C[C@H](Oc2c(I)cc(CO)cc2OC)[C@H]1O", "N"),
    ("C=C[C@@H](C)[C@@H](OC(=O)Nc1ccc(SC)cc1)c1ccc(OCCO)cc1", "N"),
    ("Cc1ccc(S[C@]2(C(=O)NCC(C)C)CC(=O)N(C3Cc4ccccc4C3)[C@@H]2c2ccc(CO)cc2I)cc1", "N"),
    ("COc1cc(NN2C(C(O)C3CCCCC3)C=CC3C(=O)N(C)C(=O)C32)cc(OC)c1OC (configuration not stated)", "Y"),
]

Okay, now this molecule:
Exercise: Please tell me: is the molecule COC(=O)[C@@]1(Cc2ccccc2)[C@H]2c3cc(C(=O)N4CCCC4)n(CCSCCO)c3C[C@H]2CN1C(=O)c1ccccc1 at or over 0.9 in terms of composite z-score?
Key: Y

* * *

Reported composite z-score by item:
ASSAY_METHOD_TEXT: small-molecule microarray binders of probe aLefty2, primary screen, biochemical, biotinylated probe, 635/667 nm fluorescence (AID 1094);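 further: score merges spot fluorescence near 667 nm with spot signal-to-noise ratio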
STATED_CONDITIONS: higher = more signal
Give your answer as a number; write no unit.

Example results:
# COMPOUND, composite z-score
measured = [
    ("C=C(COC)/C(=C/C[C@@H](OC(C)=O)c1ccc(CO)o1)c1cc(C(=O)OC)ccc1OC", -0.166),
    ("C=CCNC(=O)[C@H]1[C@@H]2C(=O)O[C@@H](c3ccccc3)[C@@H](c3ccccc3)N2[C@@H](c2ccc(O)cc2)[C@]12C(=O)N(C(=O)OCCOC)c1ccc(C#CCC(C(=O)OC)C(=O)OC)cc12", -0.0229),
]

Exercise: State the recorded composite z-score for this entry: C=C[C@@H](OC)[C@H](OC(=O)Nc1ccc(OC)cc1)c1ccc(OC)c(O)c1
Key: -0.124

Exercise: State the recorded composite z-score for this entry: O=C1O[C@H](c2ccccc2)[C@H](c2ccccc2)N2[C@H]1[C@@H](C(=O)N1CCCCCCC1)[C@]1(C(=O)Nc3ccc(C#CC4(O)CCCCCC4)cc31)[C@H]2c1ccc(O)cc1
Key: 1.65

Exercise: State the recorded composite z-score for this entry: COc1cc(NN2C(C(O)C3CCCCC3)C=CC3C(=O)N(C)C(=O)C32)cc(OC)c1OC (stereo not given)
Key: 0.855

Exercise: State the recorded composite z-score for this entry: CC(=O)N1CC(C(O)C2C=CC3C(=O)NC(=O)C3N2Nc2ccc(Cl)cc2Cl)c2ccccc21 (stereo not given)
Key: 0.131

Exercise: State the recorded composite z-score for this entry: Cc1c(NC(=O)/C(C#N)=C/c2ccccc2Cl)c(=O)n(-c2ccccc2)n1C
Key: -0.158

* * *

ASSAY_METHOD_TEXT: small-molecule microarray binders of probe aCHRDL2, primary screen, biochemical, biotinylated probe, 635/667 nm fluorescence (AID 1100)
STATED_CONDITIONS: higher = more signal
Reported composite z-score by item:
Give your answer as a number; write no unit.

Exercise: State the recorded composite z-score for this entry: CN1C(=O)C2C=CC(C(O)c3cc(C(F)(F)F)cc(C(F)(F)F)c3)N(Nc3ccccc3)C2C1=O (stereo not drawn)
Key: 0.0811

Exercise: State the recorded composite z-score for this entry: COCCOC(=O)N1C(=O)[C@@]2(c3cc(C#CCC(C(=O)OC)C(=O)OC)ccc31)[C@H](C(=O)NC[C@H](O)c1ccccc1)[C@H]1C(=O)O[C@H](c3ccccc3)[C@H](c3ccccc3)N1[C@@H]2c1ccc(O)cc1
Key: 0.521

Exercise: State the recorded composite z-score for this entry: C[C@@H]1ON(c2ccc(I)cc2)[C@H](c2ccc(OC(=O)OC(C)(C)C)cc2)[C@H]1C(=O)N1C(=O)OC[C@H]1Cc1ccccc1
Key: -0.345
